Data provenance is ChEMBL document CHEMBL1155859.

Assay: Increase in insulin secretion in Sprague-Dawley rat pancreas assessed per Langerhans islet
Type: functional
Provide the recorded Activity for the entries that follow.
Give your result in pg/h as a bare value.

Challenge: Provide only the value of recorded Activity for CCOc1cc(CC(=O)N[C@@H](CC(C)C)c2ccccc2N2CCCCC2)ccc1C(=O)O [REPAGLINIDE]
Response given: 100

Challenge: Provide only the value of recorded Activity for C[C@@H]([C@H](C)O)[C@H]1NC(=O)NC1=O
Response given: 100

Challenge: Provide only the value of recorded Activity for C[C@@H]([C@H](C)O)[C@H](N)C(=O)O
Response given: 45

Challenge: Provide only the value of recorded Activity for C[C@@H]([C@H](C)O)[C@@H]1NC(=O)NC1=O
Response given: 100
